PROTOCOL DESCRIPTION: Storage stability determination of upadacitinib cocrystals (open dish, 40° C./75% RH)
Assay type: physicochemical
Design: reference not given here
ASSAY CONDITIONS: chemical purity after storage in open dish at 40° C./75% RH up to one month
Provide the recorded Purity for the entries that follow.
Give the number; % is assumed, so skip it.

Fill in: Purity of CC(=O)Nc1ccc(C(=O)O)cc1.CC[C@@H]1CN(C(=O)NCC(F)(F)F)C[C@@H]1c1cnc2cnc3[nH]ccc3n12 is ___
100.0

Fill in: Purity of CC[C@@H]1CN(C(=O)NCC(F)(F)F)C[C@@H]1c1cnc2cnc3[nH]ccc3n12.O=C(O)c1ccc(O)c(O)c1 [3,4-dihydroxybenzoic acid cocrystal] is ___
103.9

Fill in: Purity of CC[C@@H]1CN(C(=O)NCC(F)(F)F)C[C@@H]1c1cnc2cnc3[nH]ccc3n12 [Upadacitinib Form I, reference compound] is ___
100.2
